Where these numbers come from: the RNAGym collection of RNA variant scans (doi:10.7554/elife.80360)

B1: Twister Ribozyme (parent)
chain: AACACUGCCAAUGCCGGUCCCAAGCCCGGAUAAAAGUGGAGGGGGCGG

# Variants of: B1
# protocol summary: self-cleavage, relative activity (ratio to wild type); higher = more cleavage; co-transcriptional
Parameter self-cleavage: see the listing below.
Please reply with the number alone, leaving off any unit.

>  <variant identifier>
A2C A23G

>  <reading>
0.06

$$$$
>  <variant identifier>
U6C A33C

>  <reading>
0.12

$$$$

Reported self-cleavage for A2G G45A was 0.338

Reported self-cleavage for A1C C14G was 0.124

Reported self-cleavage for A32G U37G was 0.716

Reported self-cleavage for G7C A34C was 0.118

Reported self-cleavage for C25G C27U was 0.136
